Test system: SR leukemia
procedure_text: NCI tumour cell line growth inhibition, 48 h
Each entry below carries its reported TGI.

| compound | measured_target | units_label | qualifier_symbol | TGI |
| --- | --- | --- | --- | --- |
| c1ccc(CNCCN(CCNCc2ccccn2)Cc2ccc3ccccc3c2)nc1 | SR leukemia | µM | = | 7.83 |
| COc1cc(C(=O)c2cnc(-c3cccc4[nH]ccc34)[nH]2)cc(OC)c1OC | SR leukemia | µM | > | 100 |
| N#CC(C(=O)/C(=N\NC(N)=O)C(C#N)c1ccccc1)c1ccccc1 (stereo not given) | SR leukemia | µM | > | 100 |
| Nc1ccccc1C(=O)CCC1C(=O)NC(=S)NC1=O | SR leukemia | µM | > | 100 |
| O=[N+]([O-])c1ccc(-n2nc3ccc4c(no[n+]4[O-])c3n2)cc1 | SR leukemia | µM | > | 100 |
| C=CCc1c(O)c2nsnc2c2nsnc12 | SR leukemia | µM | > | 10 |
| CCNC(=O)Oc1ccc(/C(=C(/C)Cc2ccc(OC)cc2)c2ccc(OCCN(CC)CC)cc2)cc1 | SR leukemia | µM | = | 5.96 |
| COc1ccccc1C(O)[C@@H]1C[C@@H]2[C@H]3CC[C@@](C)([C@@H]2O1)C3(C)C (stereo not given in full) | SR leukemia | µM | = | 48.3 |
| CN(C)N1C(=O)S/C(=C\c2ccc([N+](=O)[O-])cc2)C1=O | SR leukemia | µM | > | 100 |
| CCN(CC)CCN(C)c1ccc(CO)c2c1C(=O)c1ccccc1S2=O (stereo not given) | SR leukemia | µM | = | 5.53 |

----------
Each entry below carries its reported GI50.
Test system: NCI-H23 lung
procedure_text: NCI tumour cell line growth inhibition, 48 h
assay_endpoint: GI50

| compound | result |
| --- | --- |
| CCN(Cc1cccc(Cl)c1)c1ccc(CO)c(Cl)c1 | 7.51 µM |
| CCCCCCCC/C=C/CCCCCCCC1=NC(C)(C)CN1CCO | 1.84 µM |
| CCOc1ccn(-c2ccc(F)cc2)c(=O)c1C(=O)Nc1ccc(Oc2ccnc(N)c2Cl)c(F)c1 | 10.4 µM |
| Oc1c(Cl)cc(Cl)c2ccc(Cn3cc(-c4ccc(C(F)(F)F)cc4)nn3)nc12 | 2.04 µM |
| C#CCN(c1ccc(C(=O)N[C@@H](CCC(=O)N[C@H](CCC(=O)O)C(=O)O)C(=O)O)cc1)C1CCc2cc3nc(CO)[nH]c(=O)c3cc21 (stereo not given in full) | 49.1 µM |

----------
Test system: UACC-257 melanoma
procedure_text: NCI tumour cell line growth inhibition, 48 h
assay_endpoint: TGI (µM)

| compound | measured_target | units_label | qualifier_symbol | recorded_number |
| --- | --- | --- | --- | --- |
| Cn1c2c(c3c(Cl)nncc31)Cc1ccccc1-2 | UACC-257 melanoma | µM | > | 100 |
| OC(CN(CCCl)CCCl)C(O)C(O)C(O)CN(CCCl)CCCl (stereo not given) | UACC-257 melanoma | µM | > | 100 |
| O=C1c2ccccc2C2CCC1c1ccccc12 (stereo not given) | UACC-257 melanoma | µM | = | 76.6 |
| Nc1c(Cl)ncnc1NCCCCCCCCCCCCNc1ncnc(Cl)c1N | UACC-257 melanoma | µM | = | 4.21 |
| CCNC(=O)OCc1c(COC(=O)NCC)c(-c2ccc(Cl)c(Cl)c2)n2c1CCC2 | UACC-257 melanoma | µM | = | 83.8 |

----------
System: SK-MEL-2 melanoma
procedure_text: NCI tumour cell line growth inhibition, 48 h

| compound | TGI |
| --- | --- |
| Cn1cc(-c2cnn3c(N)c(Br)c(C4CCCNC4)nc23)cn1 (centres undefined) | 63.7 µM |
| COC1CC(OC2C(C)OC(OC3C(C)OC(OC4C(C)OC(O[C@H]5CC[C@@]6(C)C(=CC[C@]7(O)[C@@H]6C[C@@H](OC(C)=O)[C@@]6(C)[C@]7(O)CC[C@@]6(O)C(C)=O)C5)CC4OC)CC3OC)CC2OC)OC(C)C1O (some centres undefined) | > 25 µM |
| NC1=NN(c2ccccc2)C(=O)C1C(=O)C(=O)Nc1ccc(Cl)c(Cl)c1 (centres undefined) | > 100 µM |
| O=C1CC(CC(=O)c2ccc(Br)cc2)C(=O)/C1=C(/O)c1ccc(Br)cc1 (centres undefined) | > 100 µM |
| C/C=C1\CN2CCc3c([nH]c4ccccc34)C2CC1CCO (centres undefined) | > 100 µM |
| CCCCCCCCCOCC(COP(=O)([O-])OCC[N+](C)(C)C)OC (centres undefined) | > 100 µM |
| CC(=O)N1N=C(c2ccc(Nc3nc(Nc4ccc(F)cc4)nc(Nc4ccc(F)cc4)n3)cc2)CC1c1ccc(N(C)C)cc1 (centres undefined) | 16.5 µM |
| COc1ccc2c(c1)CCCN1CCc3ccccc3C21 (centres undefined) | > 100 µM |
| O=C1Nc2nccnc2C(=O)N2CCC[C@@H]12 | > 100 µM |

----------
Each entry below carries its reported TGI.
Test system: M14 melanoma
procedure_text: NCI tumour cell line growth inhibition, 48 h

| smiles_structure | measured_target | qualifier_symbol | TGI, µM |
| --- | --- | --- | --- |
| C/C(=C(\c1ccc(OCCN2CCCCCC2)cc1)c1ccc(OC(=O)c2ccccc2)cc1)c1ccc(Cl)cc1 | M14 melanoma | = | 3.33 |
| C=C(C(=O)OC)[C@@H]1C[C@@H](OC(C)=O)C2=C[C@H](C[C@@]3(C)O[C@@H]3C3=CC(C)=C(O3)[C@H]1OC(C)=O)OC2=O | M14 melanoma | = | 43.2 |
| N[C@@H]1CCN(c2c(F)cc3c(=O)c(C(=O)O)cn4c3c2Oc2cc3c(ccc5ccccc53)cc2-4)C1 | M14 melanoma | > | 100 |
| C=CCc1c(O)c2nsnc2c2nsnc12 | M14 melanoma | > | 10 |

----------
Tested on: HCT-116 colon
procedure_text: NCI tumour cell line growth inhibition, 48 h
Each entry below carries its reported TGI.
assay_endpoint: TGI

| compound | assay_endpoint | result |
| --- | --- | --- |
| O=Cc1cc(C(=O)OCc2ccccc2)n(S(=O)(=O)c2ccccc2)c1 | TGI | 25.7 µM |
| COC1CC(OC2C(C)OC(OC3C(C)OC(OC4C(C)OC(O[C@H]5CC[C@@]6(C)C(=CC[C@]7(O)[C@@H]6C[C@@H](OC(C)=O)[C@@]6(C)[C@]7(O)CC[C@@]6(O)C(C)=O)C5)CC4OC)CC3OC)CC2OC)OC(C)C1O (stereo not given in full) | TGI | > 25 µM |
| CCCSc1ccc2[nH]c(N3C(=O)/C(=C/c4ccc(SC)cc4)N=C3c3ccccc3)cc2c1 | TGI | > 50 µM |
| COc1cccc(C2c3cc4c(cc3OC(NNS(=O)(=O)c3ccc(C)cc3)C2C)OCO4)c1OC (stereo not given) | TGI | 4.56 µM |
| CCN(CC)CCN(C)c1ccc(CO)c2c1C(=O)c1ccccc1S2=O (stereo not given) | TGI | 3.97 µM |
| CNS(=O)(=O)NNS(=O)(=O)c1ccc(OC)cc1 | TGI | > 100 µM |
| NC1=NN(c2ccccc2)C(=O)C1C(=O)C(=O)Nc1ccc(Cl)c(Cl)c1 (stereo not given) | TGI | > 100 µM |
| O=C1C=CC(=O)c2c(O)c3c(c(O)c21)C[C@H](O)[C@H](O)[C@@H]3O | TGI | 1.73 µM |
| CC1=CC[C@@]2(C)CC[C@](O)(C(C)C)C2C(OC(=O)c2ccccc2)C1 (stereo not given in full) | TGI | 31.8 µM |
| COc1cccc(C2SC(N)=Nc3c2c(C)nn3C(=O)Cc2ccccc2)c1 (stereo not given) | TGI | > 100 µM |

----------
Tested on: SK-MEL-28 melanoma
procedure_text: NCI tumour cell line growth inhibition, 48 h
Each entry below carries its reported TGI.

| compound | TGI |
| --- | --- |
| CC1=CC(C)(C)NN1C1=NS(=O)(=O)c2ccccc2N1C | > 100 µM |
| COC(=O)c1oc2c(C(=O)/C=C/c3ccc(OC)cc3)c(OCCN(C)C)ccc2c1C | 20.9 µM |
| CC(=O)[C@H]1CCC/C=C/[C@@H]2C[C@H](O)C[C@H]2[C@H](O)/C=C/C(=O)O1 | 0.923 µM |
| NC1CCC(N(CC(=O)O)CC(=O)O)C(N(CC(=O)O)CC(=O)O)C1 (configuration not stated) | > 100 µM |
| CCCCCc1c(CCCC)c(=O)[nH]c2nc(NC(=O)CCCC)ccc12 | > 100 µM |
| CC1(C)CCCC(C)(C2CCC3(C)C2C(O)CC2C4(C)CCC(O)C(C)(C)C4CCC23C)O1 (configuration not stated) | > 100 µM |
| C/C(=N\NC(=O)c1ccccc1O)c1cccc(/C(C)=N/NC(=O)c2ccccc2O)n1.O=S(=O)([O-])[O-].[Fe+2] | > 100 µM |
| CCOP(=O)(OCC)C(NC(=O)C(C(F)(F)F)C(F)(F)F)c1ccccc1 (configuration not stated) | > 100 µM |
| CC(=O)c1ccc2c(c1)CC1(C2)Cc2cc3c(c(C(=O)O)c2C1)CCC3 (configuration not stated) | > 100 µM |
| O=[N+]([O-])c1ccc(-n2nc3ccc4c(no[n+]4[O-])c3n2)cc1 | > 100 µM |
| C=C1C(=O)O[C@H]2C1C[C@@H](OC(C)=O)/C(C)=C/CC[C@@]1(C)O[C@H]21 (some centres not stated) | 24.9 µM |
| Cc1cc(C)c(-c2c(N)cc(Br)cc2Br)c(N)c1 | 21 µM |
| Clc1ccccc1-c1nnc2c(Cc3ccccc3)nc3ccccc3n12 | > 100 µM |
| CCNC(=O)OCc1c(COC(=O)NCC)c(-c2ccc(Cl)c(Cl)c2)n2c1CCC2 | 36.9 µM |
| CCCCCCCCCCCCOC1C(CNC(=O)C2OC3OC(C)(C)OC3C2NC(=O)CN2CCN(c3ccc(OC)cc3)CC2)OC2OC(C)(C)OC21 (configuration not stated) | 23.3 µM |
| Fc1ccc2c3c([nH]c2c1)CCN(Cc1ccccc1)C3 | 30.3 µM |
| COc1nc(N)c(NC(C)=O)c(=O)n1C | > 100 µM |
| COC(=O)CCNC(=O)OCc1ccccc1 | > 100 µM |
| CC(=O)c1cc(C(=O)c2ccc3c(c2)Sc2ccccc2N3)n2ccccc12 | > 33.2 µM |
| N#CC(C(=O)/C(=N\NC(N)=O)C(C#N)c1ccccc1)c1ccccc1 (configuration not stated) | > 100 µM |
| CCOC(=O)NC(Nc1ccc(F)cc1)(C(=O)OCC)C(F)(F)F (configuration not stated) | > 100 µM |
| Cc1cccc(C)c1N1C(=O)C(=O)C(c2nc3ccccc3s2)/C(=N\N)C1=O (configuration not stated) | > 100 µM |
| CC(C)=CCCC(C)CCOS(=O)C(F)(F)F (configuration not stated) | 34.6 µM |
| COc1ccc(OC)c(/C=N/N=C(\N)NO)c1 | > 100 µM |
| CN(C)c1c(C2OC(CO)C(O)C2O)c(=O)c1=O (configuration not stated) | > 100 µM |
| Clc1cccc(-c2nnc(-c3nn(-c4ccccc4)c4nc5ccccc5nc34)o2)c1 | > 100 µM |
| COC(=O)/C=C1/OC(c2ccccc2)=C(C)C1=O | 31.1 µM |
